assayed system: recombinant human GPR52 (Homo sapiens)
test method notes: TR-FRET cAMP assay (LANCE Ultra cAMP Kit), GPR52 activity
particulars: Flp-In-CHO cells stably expressing recombinant human GPR52; cAMP production, normalized to the positive control
pEC50: −log10 of the molar value.
pEC50 values for the compounds below.

Solved entries:
| compound | observed measurement |
| --- | --- |
| Cc1cc(-c2cc(COc3cccc(C(F)F)c3)ccn2)ccc1C(N)=O | > 7.60 |
| COc1ccc(OCc2ccnc(-c3ccc(C(N)=O)c(C)c3)c2)c(Cl)c1 | > 7.60 |
| Cc1cc(-c2cc(COc3cccc4c3CCC4=O)ccn2)ccc1C(N)=O | 6.00 to 7.00 |
| Cc1cc(OCc2ccnc(-c3ccc(C(N)=O)c(C)c3)c2)ccc1Cl | 6.00 to 7.00 |
| Cc1cc(-c2cncc(COc3cc(F)cc(F)c3)c2)ccc1C(N)=O | 6.00 to 7.00 |

From here, focus on the item given below.
Query: Please report the measured pEC50 for Cc1cc(-c2cc(COc3cccc(CCO)c3)ccn2)ccc1C(N)=O
Reply: 6.00 to 7.00

----------
assayed system: recombinant human GPR52 (Homo sapiens, UniProt Q9Y2T5)
Sequence (Q9Y2T5 whole entry): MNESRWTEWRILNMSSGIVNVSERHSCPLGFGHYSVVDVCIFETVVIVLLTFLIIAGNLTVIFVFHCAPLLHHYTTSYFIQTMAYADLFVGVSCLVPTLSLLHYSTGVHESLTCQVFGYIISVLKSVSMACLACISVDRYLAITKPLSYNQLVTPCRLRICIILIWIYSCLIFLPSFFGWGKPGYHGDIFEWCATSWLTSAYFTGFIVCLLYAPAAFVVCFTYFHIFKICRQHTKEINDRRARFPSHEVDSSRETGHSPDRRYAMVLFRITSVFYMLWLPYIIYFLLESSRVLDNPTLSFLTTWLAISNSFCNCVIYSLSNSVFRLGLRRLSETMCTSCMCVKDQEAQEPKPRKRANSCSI
test method notes: TR-FRET cAMP assay (LANCE Ultra cAMP Kit), GPR52 activity
particulars: Flp-In-CHO cells stably expressing recombinant human GPR52; cAMP production, normalized to the positive control
measured endpoint: EC50

| mol | EC50 |
| --- | --- |
| Cc1cc(-c2cc(COc3cc(F)c(Cl)c(F)c3)ccn2)ccc1C(N)=O | < 25 nM |

Query: Please report the measured EC50 for COc1ccc2ccc(OCc3ccnc(-c4ccc(C(N)=O)c(C)c4)c3)cc2c1
Reply: 25 to 100 nM

----------
EC50 values for the compounds below.
assayed system: recombinant human GPR52 (Homo sapiens, UniProt Q9Y2T5)
test method notes: TR-FRET cAMP assay (LANCE Ultra cAMP Kit), GPR52 activity
particulars: Flp-In-CHO cells stably expressing recombinant human GPR52; cAMP production, normalized to the positive control

Solved entries:
| compound | EC50 |
| --- | --- |
| Cc1cc(-c2cc(COc3cc(F)cc(C4CC4)c3)ccn2)ccc1C(N)=O [Example 70] | < 25 nM |
| Cc1cc(-c2cc(COc3ccc(S(C)(=O)=O)cc3)ccn2)ccc1C(N)=O [Example 6] | 101 to 1000 nM |

Query: Please report the measured EC50 for CC(=O)c1ccc(OCc2ccnc(-c3ccc(C(N)=O)c(C)c3)c2)cc1C [Example 13]
Reply: < 25 nM

Query: Please report the measured EC50 for Cc1cc(-c2cc(COc3ccc(F)c(C#N)c3)ccn2)ccc1C(N)=O [Example 7]
Reply: 101 to 1000 nM

Query: Please report the measured EC50 for Cc1cc(-c2cc(COc3cc(F)c(F)c(F)c3)ccn2)ccc1C(N)=O [Example 57]
Reply: < 25 nM

Query: Please report the measured EC50 for Cc1cc(-c2cc(COc3cc(Cl)cc(Cl)c3)ccn2)ccc1C(N)=O [Example 20]
Reply: < 25 nM

Query: Please report the measured EC50 for Cc1cc(-c2cc(COc3ccc(C#N)c(F)c3F)ccn2)ccc1C(N)=O [Example 9]
Reply: 101 to 1000 nM

Query: Please report the measured EC50 for Cc1cc(-c2cc(COc3cc(F)c(C#N)c(F)c3)ccn2)ccc1C(N)=O [Example 10]
Reply: 25 to 100 nM

Query: Please report the measured EC50 for Cc1cc(-c2cc(COc3cccc(CC#N)c3)ccn2)ccc1C(N)=O [Example 73]
Reply: 101 to 1000 nM

----------
pEC50 values for the molecules below.
assayed system: recombinant human GPR52 (Homo sapiens, UniProt Q9Y2T5)
test method notes: TR-FRET cAMP assay (LANCE Ultra cAMP Kit), GPR52 activity
particulars: Flp-In-CHO cells stably expressing recombinant human GPR52; cAMP production, normalized to the positive control
pEC50: −log10 of the molar value.

Solved entries:
| mol | pEC50 |
| --- | --- |
| Cc1cc(-c2cc(COC3CCCCC3)ccn2)ccc1C(N)=O | 6.00 to 7.00 |
| NC(=O)c1ccc(-c2cc(COc3ccc(C(F)(F)F)cc3)ccn2)cc1Cl | > 7.60 |
| Cc1cc(-c2cc(COc3ccnc(C(F)(F)F)c3)ccn2)ccc1C(N)=O | 6.00 to 7.00 |
| Cc1cc(-c2cc(COc3ccc(F)cc3)ccn2)ccc1C(N)=O | 7.00 to 7.60 |
| Cc1cc(-c2ccnc(COc3cc(F)cc(F)c3)c2)ccc1C(N)=O | 6.00 to 7.00 |

Query: Look up and report pEC50, with recombinant human GPR52 (Homo sapiens, UniProt Q9Y2T5) as system, for Cc1cc(-c2cc(COc3ccc(Cl)c(F)c3)ccn2)ccc1C(N)=O
Reply: 6.00 to 7.00

Query: Look up and report pEC50, with recombinant human GPR52 (Homo sapiens, UniProt Q9Y2T5) as system, for Cc1cc(-c2cc(COc3ccc(F)c(F)c3)ccn2)ccc1C(N)=O
Reply: > 7.60

Query: Look up and report pEC50, with recombinant human GPR52 (Homo sapiens, UniProt Q9Y2T5) as system, for Cc1cc(-c2ccnc(COc3ccc(C#N)c(F)c3F)c2)ccc1C(N)=O
Reply: 6.00 to 7.00

Query: Look up and report pEC50, with recombinant human GPR52 (Homo sapiens, UniProt Q9Y2T5) as system, for Cc1ccccc1OCc1ccnc(-c2ccc(C(N)=O)c(C)c2)c1
Reply: 6.00 to 7.00

Query: Look up and report pEC50, with recombinant human GPR52 (Homo sapiens, UniProt Q9Y2T5) as system, for Cc1cc(-c2cc(COc3cccc(S(C)(=O)=O)c3)ccn2)ccc1C(N)=O
Reply: 6.00 to 7.00

Query: Look up and report pEC50, with recombinant human GPR52 (Homo sapiens, UniProt Q9Y2T5) as system, for Cc1cc(-c2cc(COc3ccc(C4CC4)c(F)c3)ccn2)ccc1C(N)=O
Reply: > 7.60

Query: Look up and report pEC50, with recombinant human GPR52 (Homo sapiens, UniProt Q9Y2T5) as system, for COc1ccc(OCc2cncc(-c3ccc(C(N)=O)c(C)c3)c2)cc1OC
Reply: < 6.00

Query: Look up and report pEC50, with recombinant human GPR52 (Homo sapiens, UniProt Q9Y2T5) as system, for Cc1cc(-c2cncc(COc3ccc(C(F)(F)F)cc3)c2)ccc1C(N)=O
Reply: 7.00 to 7.60

Query: Look up and report pEC50, with recombinant human GPR52 (Homo sapiens, UniProt Q9Y2T5) as system, for Cc1cc(-c2cc(COc3ccc4ccccc4c3)ccn2)ccc1C(N)=O
Reply: 7.00 to 7.60

Query: Look up and report pEC50, with recombinant human GPR52 (Homo sapiens, UniProt Q9Y2T5) as system, for Cc1cc(OCc2ccnc(-c3ccc(C(N)=O)c(C)c3)c2)ccc1F
Reply: 6.00 to 7.00

Query: Look up and report pEC50, with recombinant human GPR52 (Homo sapiens, UniProt Q9Y2T5) as system, for COc1cc(OCc2ccnc(-c3ccc(C(N)=O)c(C)c3)c2)ccc1C#N
Reply: > 7.60

Query: Look up and report pEC50, with recombinant human GPR52 (Homo sapiens, UniProt Q9Y2T5) as system, for Cc1cc(-c2cc(COc3cc(F)c(F)c(Cl)c3)ccn2)ccc1C(N)=O
Reply: > 7.60

Query: Look up and report pEC50, with recombinant human GPR52 (Homo sapiens, UniProt Q9Y2T5) as system, for COc1cccc(OCc2ccnc(-c3ccc(C(N)=O)c(C)c3)c2)c1
Reply: 6.00 to 7.00

----------
assayed system: recombinant human GPR52 (Homo sapiens, UniProt Q9Y2T5)
test method notes: TR-FRET cAMP assay (LANCE Ultra cAMP Kit), GPR52 activity
particulars: Flp-In-CHO cells stably expressing recombinant human GPR52; cAMP production, normalized to the positive control
Where a name gives a salt, the structure may show the parent alone.
EC50 values for the molecules below.

| molecule | observed measurement |
| --- | --- |
| CCc1ccccc1OCc1ccnc(-c2ccc(C(N)=O)c(C)c2)c1 [Example 32] | 101 to 1000 nM |
| Cc1cc(-c2ccnc(COc3ccc(C(F)(F)F)cc3)c2)ccc1C(N)=O [Example 81, hydrochloride] | < 25 nM |
| Cc1cc(-c2cc(COc3ccc(C#N)c(F)c3)ccn2)ccc1C(=O)NCCO [Example 79] | 101 to 1000 nM |
| COc1ccc(OCc2ccnc(-c3ccc(C(N)=O)c(C)c3)c2)cc1OC [Example 17] | 101 to 1000 nM |
| Cc1ccc(OCc2ccnc(-c3ccc(C(N)=O)c(C)c3)c2)cc1Cl [Example 18] | < 25 nM |
| CC(=O)c1ccc(OCc2cc(-c3ccc(C(N)=O)c(C)c3)ccn2)cc1 [Example 86, hydrochloride] | < 25 nM |
| Cc1ccc(OCc2cncc(-c3ccc(C(N)=O)c(C)c3)c2)cc1F [Example 89] | 25 to 100 nM |
| Cc1cc(-c2cc(COc3ccc(C#N)cc3)ccn2)ccc1C(N)=O [Example 26] | 25 to 100 nM |
| Cc1cccc(OCc2ccnc(-c3ccc(C(N)=O)c(C)c3)c2)c1 [Example 38] | 25 to 100 nM |
| Cc1cc(-c2cc(COc3ccc([N+](=O)[O-])cc3)ccn2)ccc1C(N)=O [Example 33] | < 25 nM |

Query: Look up and report EC50, with recombinant human GPR52 (Homo sapiens, UniProt Q9Y2T5) as system, for COc1cc(OCc2ccnc(-c3ccc(C(N)=O)c(C)c3)c2)ccc1F [Example 61]
Reply: < 25 nM

Query: Look up and report EC50, with recombinant human GPR52 (Homo sapiens, UniProt Q9Y2T5) as system, for Cc1cc(-c2cncc(COc3ccc4cnn(C)c4c3)c2)ccc1C(N)=O [Example 95]
Reply: > 1000 nM
